So I've got a bunch of compounds here, and I need their pIC50 values.
- TEST_TARGET: recombinant human ETB R (Homo sapiens, UniProt P24530)
- Sequence (P24530 27-442): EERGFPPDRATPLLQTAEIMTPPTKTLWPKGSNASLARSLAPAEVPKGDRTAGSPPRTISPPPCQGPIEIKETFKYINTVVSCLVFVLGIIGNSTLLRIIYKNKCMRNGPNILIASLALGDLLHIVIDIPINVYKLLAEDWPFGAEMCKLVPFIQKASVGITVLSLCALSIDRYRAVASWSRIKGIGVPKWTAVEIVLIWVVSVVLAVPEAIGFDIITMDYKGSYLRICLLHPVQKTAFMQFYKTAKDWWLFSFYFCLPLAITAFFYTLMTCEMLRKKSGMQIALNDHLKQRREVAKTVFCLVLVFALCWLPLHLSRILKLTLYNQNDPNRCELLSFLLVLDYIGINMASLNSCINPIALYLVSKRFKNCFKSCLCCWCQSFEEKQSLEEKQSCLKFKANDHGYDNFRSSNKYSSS
- EXPERIMENTAL_PARAMETERS: [125I]-ET-1 40 pM, 2 hours at 37° C., CHO-K1 cells, read-out: HERBA-B IC50
Numbers only, as −log10 of the molar value.

Completed entries (count: 4):
[[record]]
molecule = "COc1ccc(Sc2c(C(=O)O)n(Cc3ccc4c(c3)OCO4)c3cc4c(cc23)OCO4)cc1OC"
recorded_result = 6.77

[[record]]
molecule = "COc1cccc(Sc2c(C(=O)O)n(Cc3ccccc3)c3ccccc23)c1"
recorded_result = 5.82

[[record]]
molecule = "O=C(O)c1c(Sc2ccccc2)c2ccccc2n1-c1ccc2c(c1)OCO2"
recorded_result = 5.19

[[record]]
molecule = "COc1cccc(Sc2c(C(=O)O)n(Cc3ccc4c(c3)OCO4)c3cc(OC)c(OC)cc23)c1"
recorded_result = 5.96


Batch lookup, pIC50 per entry.
1. O=C(O)c1c(Sc2ccc3c(c2)OCO3)c2ccccc2n1Cc1ccc2c(c1)OCO2
2. COc1cccc(Sc2c(C(=O)O)n(Cc3ccc4c(c3)OCO4)c3cc(OC)c(OCc4ccccc4)cc23)c1

5.35
6.16

Batch lookup, pIC50 per entry.
1. COc1ccc(Cn2c(C(=O)O)c(Sc3cccc(OC)c3)c3cc(OC)c(OC)cc32)cc1
2. COc1cccc(Sc2c(C(=O)O)n(Cc3ccc(OC)cc3OCC(=O)O)c3cc(OC)c(OC)cc23)c1

1. 6.06
2. 5.92

---

So I've got a bunch of molecules here, and I need their IC50 values.
- TEST_TARGET: recombinant human ETB R (Homo sapiens, UniProt P24530)
- Sequence (P24530 27-442): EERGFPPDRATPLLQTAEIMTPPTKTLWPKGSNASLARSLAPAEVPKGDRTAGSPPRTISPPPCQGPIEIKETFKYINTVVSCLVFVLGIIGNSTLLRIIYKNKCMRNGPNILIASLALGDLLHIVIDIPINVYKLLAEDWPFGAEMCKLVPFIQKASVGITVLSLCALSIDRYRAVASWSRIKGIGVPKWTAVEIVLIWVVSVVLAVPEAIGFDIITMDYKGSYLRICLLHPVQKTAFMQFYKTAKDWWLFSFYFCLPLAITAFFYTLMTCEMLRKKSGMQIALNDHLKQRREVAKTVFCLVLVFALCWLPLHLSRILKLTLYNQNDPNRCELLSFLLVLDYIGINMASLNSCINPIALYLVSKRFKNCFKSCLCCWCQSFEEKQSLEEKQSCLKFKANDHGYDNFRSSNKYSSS
- EXPERIMENTAL_PARAMETERS: [125I]-ET-1 40 pM, 2 hours at 37° C., CHO-K1 cells, read-out: HERBA-B IC50
- Experimental: Membranes were prepared from cultured cells by lysing cells in cold lysis buffer (5 mM HEPES, 2 mM EDTA, pH 7.4) and homogenizing with a Dounce "A" homogenizer. The homogenate was centrifuged at 30,000×g for 20 min at 4° C. […] Radioligand and competing ligands were prepared in binding buffer containing 20 mM Tris, 2 mM EDTA, and 0.1% BSA.
Numbers only, in µM.

[[record]]
molecule = "COc1cccc(Sc2c(C(=O)O)n(Cc3cc(OC)c4c(c3)OCO4)c3cc4c(cc23)OCO4)c1"
recorded_result = 2.9

[[record]]
molecule = "COc1cccc(Sc2c(C(=O)O)n(Cc3cc(OC)c4c(c3)OCO4)c3cc(OC)c(OC)cc23)c1"
recorded_result = 1.1

[[record]]
molecule = "CCCOc1ccc2c(Sc3cccc(OC)c3)c(C(=O)O)n(Cc3ccc4c(c3)OCO4)c2c1"
recorded_result = 6.7


Batch lookup, IC50 per entry.
1. COc1ccc(Sc2c(C(=O)O)n(Cc3cc(OC)c4c(c3)OCO4)c3cc4c(cc23)OCO4)cc1OC
2. COc1cccc(Sc2c(C(=O)O)n(Cc3ccc4c(c3)OCO4)c3ccccc23)c1
3. COc1cc2c(Sc3ccc4c(c3)OCO4)c(C(=O)O)n(Cc3ccc4c(c3)OCO4)c2cc1OCc1ccccc1
4. COc1cccc(Sc2c(C(=O)O)n(Cc3ccc4c(c3)OCO4)c3cc4c(cc23)OCO4)c1

1. 0.42
2. 7.4
3. 0.053
4. 0.71

---

- TEST_TARGET: recombinant human ETA R (Homo sapiens, UniProt P25101)
- Sequence (P25101 21-427): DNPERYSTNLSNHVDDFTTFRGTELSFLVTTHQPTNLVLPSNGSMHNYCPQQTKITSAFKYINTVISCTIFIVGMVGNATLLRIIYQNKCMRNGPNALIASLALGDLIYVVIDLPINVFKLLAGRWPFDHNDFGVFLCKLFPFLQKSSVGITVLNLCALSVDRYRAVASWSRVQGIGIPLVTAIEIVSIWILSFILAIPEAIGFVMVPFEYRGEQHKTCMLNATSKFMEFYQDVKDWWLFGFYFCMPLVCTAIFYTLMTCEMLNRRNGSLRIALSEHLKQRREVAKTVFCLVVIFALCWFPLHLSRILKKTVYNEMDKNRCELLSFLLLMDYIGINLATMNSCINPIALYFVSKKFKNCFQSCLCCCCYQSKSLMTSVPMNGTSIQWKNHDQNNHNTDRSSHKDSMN
- EXPERIMENTAL_PARAMETERS: [125I]-ET-1 40 pM, 2 hours at 37° C., Ltk- cells, read-out: HERBA-A IC50
So I've got a bunch of compounds here, and I need their IC50 values.
One number for each entry, in nM.

Completed entries (count: 10):
[[record]]
molecule = "COc1ccc(Sc2c(C(=O)O)n(Cc3ccc4c(c3)OCO4)c3cc4c(cc23)OCO4)cc1OC"
experimental_endpoint = "IC50"
display_unit = "nM"
recorded_result = 39

[[record]]
molecule = "COc1cccc(Sc2c(C(=O)O)n(Cc3ccc4c(c3)OCO4)c3cc4c(cc23)OCO4)c1"
experimental_endpoint = "IC50"
display_unit = "nM"
recorded_result = 84

[[record]]
molecule = "O=C(O)c1c(Sc2ccc3c(c2)OCO3)c2ccccc2n1Cc1ccc2c(c1)OCO2"
experimental_endpoint = "IC50"
display_unit = "nM"
recorded_result = 380

[[record]]
molecule = "COc1cccc(Sc2c(C(=O)O)n(Cc3cc(OC)c4c(c3)OCO4)c3cc(OC)c(OC)cc23)c1"
experimental_endpoint = "IC50"
display_unit = "nM"
recorded_result = 58

[[record]]
molecule = "COc1cccc(Sc2c(C(=O)O)n(Cc3ccc4c(c3)OCO4)c3ccccc23)c1"
experimental_endpoint = "IC50"
display_unit = "nM"
recorded_result = 90

[[record]]
molecule = "O=C(O)c1c(Sc2ccccc2)c2ccccc2n1-c1ccc2c(c1)OCO2"
experimental_endpoint = "IC50"
display_unit = "nM"
recorded_result = 3200

[[record]]
molecule = "COc1cc2c(Sc3ccc4c(c3)OCO4)c(C(=O)O)n(Cc3ccc4c(c3)OCO4)c2cc1OCc1ccccc1"
experimental_endpoint = "IC50"
display_unit = "nM"
recorded_result = 690

[[record]]
molecule = "COc1ccc(Sc2c(C(=O)O)n(Cc3cc(OC)c4c(c3)OCO4)c3cc4c(cc23)OCO4)cc1OC"
experimental_endpoint = "IC50"
display_unit = "nM"
recorded_result = 170

[[record]]
molecule = "COc1cccc(Sc2c(C(=O)O)n(Cc3ccc(OC)cc3OCC(=O)O)c3cc(OC)c(OC)cc23)c1"
experimental_endpoint = "IC50"
display_unit = "nM"
recorded_result = 480

[[record]]
molecule = "COc1cccc(Sc2c(C(=O)O)n(Cc3cc(OC)c4c(c3)OCO4)c3cc4c(cc23)OCO4)c1"
experimental_endpoint = "IC50"
display_unit = "nM"
recorded_result = 380


Batch lookup, IC50 per entry.
1. COc1cccc(Sc2c(C(=O)O)n(Cc3ccc4c(c3)OCO4)c3cc(OC)c(OCc4ccccc4)cc23)c1
2. CCCOc1ccc2c(Sc3cccc(OC)c3)c(C(=O)O)n(Cc3ccc4c(c3)OCO4)c2c1
3. COc1cccc(Sc2c(C(=O)O)n(Cc3ccccc3)c3ccccc23)c1
4. COc1ccc(Cn2c(C(=O)O)c(Sc3cccc(OC)c3)c3cc(OC)c(OC)cc32)cc1

1: 81; 2: 590; 3: 4600; 4: 160
